- Tested on: APESV: bentgrass (Apera spica-venti)
- measurement.protocol: Post-emergent Test III, herbicidal activity in wheat and barley
- Format: in vivo
- particulars: Apera spica-venti, post-emergence, 504 h; Table 9; 70 g ai/ha; post-emergent; 21 d; read-out: Visual Growth Reduction (%) 21 Days After Application APESV
pest or weed control at 70 g/ha overview
readout.name: pest or weed control at 70 g/ha

[
  {
    "query.smiles": "Nc1c(Cl)c(C(=O)O)nc(-c2ccc(I)cc2)c1Cl",
    "tested.on": "APESV: bentgrass (Apera spica-venti)",
    "readout.name": "pest or weed control at 70 g/ha",
    "result": "75 to 84%"
  },
  {
    "query.smiles": "Nc1c(F)c(-c2cc(F)c(Br)cc2F)nc(C(=O)O)c1Cl",
    "tested.on": "APESV: bentgrass (Apera spica-venti)",
    "readout.name": "pest or weed control at 70 g/ha",
    "result": "85 to 94%"
  },
  {
    "query.smiles": "C=Cc1c(C(=O)O)nc(-c2ccc(C#N)cc2)c(F)c1N",
    "tested.on": "APESV: bentgrass (Apera spica-venti)",
    "readout.name": "pest or weed control at 70 g/ha",
    "result": "0 to 29%"
  },
  {
    "query.smiles": "Nc1c(Cl)c(C(=O)O)nc(-c2ccc(C(F)(F)F)c(F)c2)c1Cl",
    "tested.on": "APESV: bentgrass (Apera spica-venti)",
    "readout.name": "pest or weed control at 70 g/ha",
    "result": "95 to 100%"
  },
  {
    "query.smiles": "Nc1cc(-c2ccc(Br)cc2F)nc(C(=O)O)c1Cl",
    "tested.on": "APESV: bentgrass (Apera spica-venti)",
    "readout.name": "pest or weed control at 70 g/ha",
    "result": "85 to 94%"
  },
  {
    "query.smiles": "Cc1c(-c2ccc(C(F)(F)F)c(F)c2)nc(C(=O)O)c(Cl)c1N",
    "tested.on": "APESV: bentgrass (Apera spica-venti)",
    "readout.name": "pest or weed control at 70 g/ha",
    "result": "75 to 84%"
  }
]
